test: CEETOX_H295R_CORTISOL: CeeTox H295R High-throughput Steroidogenesis Assay for Cortisol (AID 2283438); conditions: actives raise or lower the signal;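 further: cortisol secreted into medium quantified by LC-MS/MS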
Calls of active or inactive are those of the source. How the source made its calls: active means hit-call score of the fitted dose curve at least 0.9, where 1 is the maximum; inactive means score below 0.9.
I would appreciate it if you answered using one of these outcomes: T (active), F (inactive)

Past entries and their recorded results:
INSERT INTO measurements (molecule, group) VALUES
  ('Nc1ccc(N=Nc2ccccc2)cc1', 'T'),
  ('Cc1cccc(N)c1N', 'F'),
  ('Cc1ccc(N=C=O)cc1N=C=O', 'F'),
  ('c1ccc(N=Nc2ccccc2)cc1', 'F'),
  ('Cc1cc(N=Nc2ccccc2C)ccc1N', 'F');

Exercise: What call does the record list for CCC(C)c1ccc(O)cc1 (stereo unspecified) ?
Solution: F
